Molecular target: S1P3 (membranes from EDG3-Ga15-bla HEK293T cells) (Homo sapiens (Human), UniProt Q99500)
Sequence (Q99500 whole entry): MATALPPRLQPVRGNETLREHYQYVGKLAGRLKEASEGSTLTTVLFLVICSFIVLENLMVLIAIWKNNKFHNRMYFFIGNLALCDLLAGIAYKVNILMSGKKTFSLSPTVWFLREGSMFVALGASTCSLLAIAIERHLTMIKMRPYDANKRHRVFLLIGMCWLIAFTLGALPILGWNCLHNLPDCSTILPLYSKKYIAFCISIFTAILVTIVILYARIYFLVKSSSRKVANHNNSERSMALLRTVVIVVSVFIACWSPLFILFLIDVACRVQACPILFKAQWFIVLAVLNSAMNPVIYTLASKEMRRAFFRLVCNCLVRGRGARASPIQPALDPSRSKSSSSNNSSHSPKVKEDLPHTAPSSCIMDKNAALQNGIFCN
Experiment: Receptor [35S] GTPγS Binding Assay, S1P3
Conditions: EDG3-Ga15-bla HEK293T cell membranes; rounded to two digits
The following compounds are shown together with reported EC50 values.

{"compound": "CC(N)(CO)CCc1ccc2c(c1)CCc1c-2noc1-c1noc(-c2ccccc2)c1C(F)(F)F (single isomer, unassigned)", "recordedResult": "> 63 µM"}

Data request: Dear colleague, I am looking for the recorded EC50 of the following compound: "Oc1ccc2c(c1)CCc1c-2noc1-c1cc(-c2ccccc2)on1"
Data returned: > 63 µM

Data request: Similarly, "O=C(O)C1CN(Cc2ccc3c(c2)CCc2c-3n[nH]c2-c2onc(-c3ccccc3)c2C(F)(F)F)C1" ?
Data returned: > 63 µM
